Origin of measurements: PubChem BioAssay

# viability per entry
# assay notes: reversal of MRP1-mediated doxorubicin resistance, pilot screen, H69AR cells, doxorubicin co-treatment (AID 601)
# experimental conditions: H69AR cells + 2 uM doxorubicin, CellTiter-Glo, 72 h; measured here: viability with 2 uM doxorubicin; at 10 µM; stronger effect = lower value
Field: numeric (%). Do not append units.

>  <compound>
CC(=O)OC1CSc2nc3ccccc3n2C1 (stereo not drawn)

>  <assay endpoint>
viability

>  <value measured>
85.9

$$$$
>  <compound>
C=C(C)COc1ccc(-c2nc(N)ncc2-c2ccc(OC)cc2)c(O)c1

>  <assay endpoint>
viability

>  <value measured>
31.8

$$$$
>  <compound>
CCOC(=O)C(C(C)=O)c1nc(C)nc2c1nnn2Cc1ccccc1Cl (stereo not drawn)

>  <assay endpoint>
viability

>  <value measured>
89.1

$$$$
>  <compound>
O=C(c1ncc[nH]1)c1ccccc1C(=O)N1CCOCC1

>  <assay endpoint>
viability

>  <value measured>
87.3

$$$$
>  <compound>
Cc1cccc(OCC(=O)Nc2ccccc2N2CCN(C(=O)C(C)C)CC2)c1C

>  <assay endpoint>
viability

>  <value measured>
86

$$$$

Then this compound:
Request: Identify the reported viability for the following entry. CCC(C)NC(=O)CCNS(=O)(=O)c1ccc(Br)cc1 (stereo not drawn)
Response: 95.8
